Molecular target: NADPH oxidase 2 (Homo sapiens) (UniProt P04839)
Sequence (P04839 whole entry, looked up): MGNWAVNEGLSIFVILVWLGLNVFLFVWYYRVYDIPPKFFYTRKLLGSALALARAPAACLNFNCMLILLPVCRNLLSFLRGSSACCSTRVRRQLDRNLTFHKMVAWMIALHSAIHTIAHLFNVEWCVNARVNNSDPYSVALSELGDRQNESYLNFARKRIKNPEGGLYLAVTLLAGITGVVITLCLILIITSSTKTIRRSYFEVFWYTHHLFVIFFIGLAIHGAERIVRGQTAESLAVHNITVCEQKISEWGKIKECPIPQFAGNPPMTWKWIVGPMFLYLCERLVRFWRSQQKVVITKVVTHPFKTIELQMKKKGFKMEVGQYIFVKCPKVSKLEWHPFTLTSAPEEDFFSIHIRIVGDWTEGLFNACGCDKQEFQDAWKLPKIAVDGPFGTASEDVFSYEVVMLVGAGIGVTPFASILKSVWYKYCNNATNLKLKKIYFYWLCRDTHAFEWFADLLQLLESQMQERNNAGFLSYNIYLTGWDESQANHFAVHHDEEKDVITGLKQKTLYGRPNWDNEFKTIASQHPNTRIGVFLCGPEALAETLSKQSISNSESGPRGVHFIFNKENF
Assay: NOX2-dependent H2O2 signal modulators, primary screen, NOX inhibitor project, cell-based, HEK293-NOX2, PMA-stimulated, Amplex Red fluorescence (AID 1159); also: test concentration not given here
Conditions: 45 min, higher = more signal, called active from +8 up or from −8 down
Use satisfied when the recorded z-score is no lower than -0.9; use not satisfied when it is lower.

MOLECULE: C=C(C)[C@@H]1CC=C(C(O)C2C=CC3C(=O)N(c4ccccc4)C(=O)C3N2Nc2ccc(C#N)cc2)CC1 (some centres undefined)
CLASS: not satisfied
//
MOLECULE: CN1C=C(C(=O)OCCS(C)(=O)=O)C(C(=O)OCCS(C)(=O)=O)=CC(c2ccc(CO)cc2)=CC1c1cccs1 (centres undefined)
CLASS: not satisfied
//
MOLECULE: C=CCC(OC(C)=O)[C@@H]1[C@@H](N(Cc2cccc3ccccc23)C(=O)c2cccc3ccccc23)c2cc(OCCCO)ccc2N1C(=O)c1ccc2ccccc2c1 (some centres undefined)
CLASS: not satisfied
//
MOLECULE: CN1C(=O)C2C=CC(C(O)c3cc(C(F)(F)F)cc(C(F)(F)F)c3)N(Nc3ccccc3)C2C1=O (centres undefined)
CLASS: not satisfied
//
MOLECULE: COCCOC(=O)N1C(=O)[C@@]2(c3cc(C#CCCO)ccc31)[C@H](C(=O)N1CCCCCCC1)[C@H]1C(=O)O[C@H](c3ccccc3)[C@H](c3ccccc3)N1[C@@H]2c1ccccc1OCCO
CLASS: satisfied
//
MOLECULE: CC(=O)n1cc(C(O)C2C=CC3C(=O)N(c4ccccc4)C(=O)C3N2Nc2ccc(C(C)C)cc2)c2ccccc21 (centres undefined)
CLASS: not satisfied
//
MOLECULE: CC(C)[C@H]1NC(=O)[C@@]23C(=O)N[C@@H](Cc4ccccc4)C2[C@H](C)[C@@]2(C)O[C@H]2C3/C=C/C/C=C\CNC(=O)[C@H](Cc2ccccc2)NC1=O (some centres undefined)
CLASS: satisfied
//
MOLECULE: COC(=O)C(CC#Cc1ccc2c(c1)[C@]1(C(=O)N2)[C@H](c2ccc(O)cc2)N2[C@H](c3ccccc3)[C@H](c3ccccc3)OC(=O)[C@H]2[C@@H]1C(=O)N1CCCCCCC1)C(=O)OC
CLASS: satisfied
//
MOLECULE: COCCCNC(=O)[C@@H]1c2ccccc2C(=O)N(C2Cc3ccccc3C2)[C@H]1c1ccc(CO)cc1
CLASS: satisfied
//
MOLECULE: CCOC(=O)C=Cc1ccccc1O
CLASS: not satisfied
//
MOLECULE: O=C1O[C@H](c2ccccc2)[C@H](c2ccccc2)N2[C@H]1[C@@H](C(=O)N1CCCCCCC1)[C@]1(C(=O)Nc3ccc(C#CC4(O)CCCCCC4)cc31)[C@H]2c1ccccc1OCCO
CLASS: satisfied
//
MOLECULE: O=C(CS)NCCCCCNC(=O)[C@@H]1C[C@@H]2C(=O)N[C@@H](Cc3ccccc3)C(=O)N2[C@@H]1c1cccc(OCCO)c1
CLASS: satisfied
//
MOLECULE: C=C(COC)C(=O)CC[C@H](OC(=O)c1cccnc1)c1ccc(CO)o1
CLASS: satisfied

---

System: Wnt5a (protein binding on small-molecule microarray)
Test: Wnt5a binders on small-molecule microarray, primary screen, biophysical, 635/667 nm fluorescence (AID 1142);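 also: fluorescence read at 667 nm with signal to noise per printed feature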
Settings: 635 nm fluorescence, higher = more signal
# binarize composite z-score: threshold 0.4 inclusive, high side YES, low side NO

COMPOUND: CN1C(=O)[C@@]2(Cc3ccccc3)N=C(c3ccc(OCCCO)cc3)O[C@H]2c2ccccc21
MEASURED ON: Wnt5a (protein binding on small-molecule microarray)
CLASS: YES
//
COMPOUND: COCCOC(=O)N1C(=O)[C@@]2(c3cc(C#CCNC(N)=O)ccc31)[C@H](c1ccc(O)cc1)N1[C@H](c3ccccc3)[C@H](c3ccccc3)OC(=O)[C@H]1[C@@H]2C(N)=O
MEASURED ON: Wnt5a (protein binding on small-molecule microarray)
CLASS: NO
//
COMPOUND: O=C1C2C=CC(C(O)C=Cc3ccc([N+](=O)[O-])cc3)N(Nc3ccccc3)C2C(=O)N1c1ccccc1 (stereo not given)
MEASURED ON: Wnt5a (protein binding on small-molecule microarray)
CLASS: NO
//
COMPOUND: COC(=O)C(CC#Cc1ccc2c(c1)[C@]1(C(=O)N2)[C@H](C(=O)Nc2nc3ccccc3s2)[C@H]2C(=O)O[C@H](c3ccccc3)[C@H](c3ccccc3)N2[C@@H]1c1ccc(OCCO)cc1)C(=O)OC
MEASURED ON: Wnt5a (protein binding on small-molecule microarray)
CLASS: YES
//
COMPOUND: C=CCNC(=O)[C@H]1[C@@H]2C(=O)O[C@@H](c3ccccc3)[C@@H](c3ccccc3)N2[C@@H](c2ccc(OCCO)cc2)[C@]12C(=O)Nc1ccc(C#CCNC(N)=O)cc12
MEASURED ON: Wnt5a (protein binding on small-molecule microarray)
CLASS: NO
//
COMPOUND: CC(C)OC(=O)CC(=O)CC(O)c1ccc([N+](=O)[O-])cc1 (stereo not given)
MEASURED ON: Wnt5a (protein binding on small-molecule microarray)
CLASS: NO
//
COMPOUND: CN(C)C(=O)[C@@]1(Cc2ccccc2N=[N+]=[N-])N=C(c2ccc(OCCCO)cc2)O[C@H]1c1ccccc1
MEASURED ON: Wnt5a (protein binding on small-molecule microarray)
CLASS: YES
//
COMPOUND: Nc1cc(Br)ccc1C(=O)O
MEASURED ON: Wnt5a (protein binding on small-molecule microarray)
CLASS: NO
//
COMPOUND: C=C(/C(=C/C[C@H](OC(=O)c1ccncc1)c1ccccc1OCCO)c1cnc2ccccc2c1)C(C)C
MEASURED ON: Wnt5a (protein binding on small-molecule microarray)
CLASS: YES
//
COMPOUND: COCCOC(=O)N1C(=O)[C@@]2(c3cc(C#CC4=CCCCC4)ccc31)[C@H](C(=O)N1CCCCCCC1)[C@H]1C(=O)O[C@H](c3ccccc3)[C@H](c3ccccc3)N1[C@@H]2c1ccc(OCCO)cc1
MEASURED ON: Wnt5a (protein binding on small-molecule microarray)
CLASS: YES
//
COMPOUND: NC(=O)N1C(=O)C2C(C1=O)C1C=C(CCCO)C2C(C2CC2)N1Cc1cccc(OC(F)(F)F)c1 (stereo not given)
MEASURED ON: Wnt5a (protein binding on small-molecule microarray)
CLASS: NO
//
COMPOUND: COc1ccc([Si](C)(C)[C@@H]2[C@@H](CC(=O)N3Cc4ccccc4C[C@H]3CO)O[C@]3(C(=O)N(c4ccccc4)c4ccccc43)[C@H]2C)cc1
MEASURED ON: Wnt5a (protein binding on small-molecule microarray)
CLASS: YES
//
COMPOUND: COC(=O)C1=CC(CCCO)=CC(c2ccc(CN3CCCC3)cc2)N(Cc2cc3c(cc2Br)OCO3)C=C1C(=O)OC (stereo not given)
MEASURED ON: Wnt5a (protein binding on small-molecule microarray)
CLASS: YES
//
COMPOUND: O=C1C2C=CC(C(O)c3ccc(I)cc3)N(Nc3ccccc3)C2C(=O)N1c1ccccc1 (stereo not given)
MEASURED ON: Wnt5a (protein binding on small-molecule microarray)
CLASS: YES
//
COMPOUND: CN1C(=O)C2C=CC(C(O)c3ccc(I)cc3)N(Nc3ccccc3)C2C1=O (stereo not given)
MEASURED ON: Wnt5a (protein binding on small-molecule microarray)
CLASS: NO

---

Target: E3 ubiquitin-protein ligase XIAP (Homo sapiens)
Assay: XIAP binders, primary screen, biophysical, small-molecule microarray, fluorescence 635 nm (AID 1181);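 also: score merges 667 nm emission and signal to noise over triplicate slides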
Settings: small-molecule microarray binding, higher = more signal
Measured composite z-score by item

COMPOUND: COCCOC(=O)N1C(=O)[C@@]2(c3cc(C#CCC(C(=O)OC)C(=O)OC)ccc31)[C@H](C(=O)NC[C@H](O)c1ccccc1)[C@H]1C(=O)O[C@H](c3ccccc3)[C@H](c3ccccc3)N1[C@@H]2c1ccc(OCCO)cc1
composite z-score: 0.0806

COMPOUND: COCCOC(=O)N1C(=O)[C@@]2(c3cc(C#CCC(C(=O)OC)C(=O)OC)ccc31)[C@H](c1ccc(OCCO)cc1)N1[C@H](c3ccccc3)[C@H](c3ccccc3)OC(=O)[C@H]1[C@@H]2C(=O)Nc1nc2ccccc2s1
composite z-score: 0.0506

COMPOUND: CCCCC(=O)N(CCN1CCOCC1)[C@@H]1CC(C(=O)NCCO)=C[C@H](Oc2c(I)cc(CO)cc2OC)[C@H]1O
composite z-score: -0.22

COMPOUND: CCCC=C(CCC)[C@@H](NS(=O)(=O)c1cccc2cccnc12)c1ccc(-c2ccccc2)cc1
composite z-score: 0.072

COMPOUND: Cc1ccc(S[C@]2(C(=O)NC(C)C)CC(=O)N(C(C)C)[C@@H]2c2ccc(CO)cc2I)cc1
composite z-score: 0.158

COMPOUND: O=C1NC(=O)C2C1C=CC(C(O)c1ccccn1)N2Nc1ccc(Cl)cc1Cl (stereo unspecified)
composite z-score: -0.131
